# Tested on: HOP-92 NSCLC
# protocol_summary: NCI-60 one-dose screen, 48 h (100 = growth as untreated, 0 = no growth, -100 = all killed)
# reported_conditions: 10 µM unless noted
The panel holds about 83,000 compounds, 20% with a hit somewhere; the sample as a whole holds those more often. The source made the active and inactive calls. Rule for the calls: active = growth percent below 10; inactive = the rest.
growth overview

As a guide, the following entries are already answered.
Cc1ccc(S(=O)(=O)Nc2ccc(Cl)cc2)cc1 | 86.9% (inactive)
CC[C@H](CC[C@@H](C)[C@H]1CC[C@H]2[C@@H]3CC=C4C[C@@H](OCCc5nn[nH]n5)CC[C@]4(C)[C@H]3CC[C@]12C)C(C)C | 147% (inactive)

Query block: Look up growth of CCCCc1ccc(Nc2nnc(SCC(=O)NC(=O)NCC)s2)cc1 and report it.
Result block: 61.4% (inactive)
